Data origin, for the record: patent US20210380703A1

- target-desc: T1, Human ACVR2A (human, UniProt P27037 20-135, limits assumed); note: test concentration or dose not given here
- T1 construct: also called activin receptor, type II A
- T1 sequence (P27037 20-135 limits assumed): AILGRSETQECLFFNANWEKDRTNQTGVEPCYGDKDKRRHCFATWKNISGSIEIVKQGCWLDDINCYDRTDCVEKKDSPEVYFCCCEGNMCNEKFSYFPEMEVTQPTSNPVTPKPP
- experimental-details: ELISA
- Experimental: The binding of ACVR2A-specific monoclonal antibodies to human ACVR2A, mouse ACVR2A, biotinylated goat anti-human kappa light chain (positive control) and human Fc (negative control) were determined by ELISA.
attribute-measured: optical density (OD)
A number alone suffices; assume OD.

Reference set, count: 9
>  <binder>
373_A08 (antibody, V domains shown) VH: EVQLLESGGGLVQPGGSLRLSCAASGFTFDSYGMNWVRQAPGKGLEWVSNINYNGGYTGYADSVKGRFTISRDNSKNTLYLQMNSLRAEDTAVYYCARSANWHDTALDYWGQGTLVTVSS VL: DIQMTQSPSSLSASVGDRVTITCRASQSIVSYVNWYQQKPGKAPKLLIYAATSLASGVPSRFSGSGSGTDFTLTISSLQPEDFATYYCQQSYSLPLTFGGGTKVEIK

>  <optical density, OD>
3.3

$$$$
>  <binder>
373_C06 (antibody, V domains shown) VH: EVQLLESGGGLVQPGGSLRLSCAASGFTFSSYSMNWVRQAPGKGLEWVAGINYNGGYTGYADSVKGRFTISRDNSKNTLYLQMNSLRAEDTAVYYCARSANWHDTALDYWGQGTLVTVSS VL: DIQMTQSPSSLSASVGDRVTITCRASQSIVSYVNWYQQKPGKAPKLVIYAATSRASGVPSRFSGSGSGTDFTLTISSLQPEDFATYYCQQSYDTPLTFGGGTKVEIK

>  <optical density, OD>
3.54

$$$$
>  <binder>
373_C11 (antibody, V domains shown) VH: EVQLLESGGGLVQPGGSLRLSCAASGFTFSSYSMNWVRQAPGKGLEWVSGINYNSGYTGYADSVKGRFTISRDNSKNTLYLQMNSLRAEDTAVYYCARSANWHDTALDYWGQGTLVTVSS VL: DIQMTQSPSSLSASVGDRVTITCRASQSILTYVNWYQQKPGKAPKLVIYAVTSRASGVPSRFSGSGSGTDFTLTISSLQPEDFATYYCQQSYETPLTFGGGTKVEIK

>  <optical density, OD>
3.49

$$$$
>  <binder>
370_G06 (antibody, V domains shown) VH: EVQLLESGGGLVQPGGSLRLSCAASGFTFSDYGMHWVRQAPGKGLEWVSSINYNGGYTSYADSVKGRFTISRDNSKNTLYLQMNSLRAEDTAVYYCARSANWHDTALDYWGQGTLVTVSS VL: DIQMTQSPSSLSASVGDRVTITCRASQSILSYVNWYQQKPGKAPKLVIYAATSRASGVPSRFSGSGSGTDFTLTISSLQPEDFATYYCQQSDNTPLTFGGGTKVEIK

>  <optical density, OD>
2.19

$$$$
>  <binder>
367_E01 (antibody, V domains shown) VH: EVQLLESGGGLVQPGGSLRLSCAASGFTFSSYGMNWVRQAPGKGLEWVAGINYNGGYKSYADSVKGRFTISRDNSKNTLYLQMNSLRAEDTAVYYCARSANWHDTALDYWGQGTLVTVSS VL: DIQMTQSPSSLSASVGDRVTITCRASQSILSYVNWYQQKPGKAPKLLIYATTSRASGVPSRFSGSGSGTDFTLTISSLQPEDFATYYCQQSYDLPLTFGGGTKVEIK

>  <optical density, OD>
2.55

$$$$
>  <binder>
368_E07 (antibody, V domains shown) VH: EVQLLESGGGLVQPGGSLRLSCAASGFTFSSYGMNWVRQAPGKGLEWVAGINYNGGYTSYADSVKGRFTISRDNSKNTLYLQMNSLRAEDTAVYYCAKSANWHDTALDYWGQGTLVTVSS VL: DIQMTQSPSSLSASVGDRVTITCRASQSILSYLNWYQQKPGKAPKLLIYAVTSRASGVPSRFSGSGSGTDFTLTISSLQPEDFATYYCQQSYENPLTFGGGTKVEIK

>  <optical density, OD>
1.07

$$$$
>  <binder>
369_E02 (antibody, V domains shown) VH: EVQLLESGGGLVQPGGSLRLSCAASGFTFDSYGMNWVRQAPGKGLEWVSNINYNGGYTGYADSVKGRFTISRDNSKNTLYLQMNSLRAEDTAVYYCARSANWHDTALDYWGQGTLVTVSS VL: DIQMTQSPSSLSASVGDRVTITCRASQSIVSYVNWYQQKPGKAPKLLIYATTSRHSGVPSRFSGSGSGTDFTLTISSLQPEDFATYYCQQSYDNPLTFGGGTKVEIK

>  <optical density, OD>
2.14

$$$$
>  <binder>
370_E09 (antibody, V domains shown) VH: EVQLLESGGGLVQPGGSLRLSCAASGFTFDDSSMHWVRQAPGKGLEWVSNINYNGGYTGYADSVKGRFTISRDNSKNTLYLQMNSLRAEDTAVYYCAKSANWHDTALDYWGQGTLVTVSS VL: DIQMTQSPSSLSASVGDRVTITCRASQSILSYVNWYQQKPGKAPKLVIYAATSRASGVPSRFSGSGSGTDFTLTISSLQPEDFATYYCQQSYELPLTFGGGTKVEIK

>  <optical density, OD>
3.45

$$$$
>  <binder>
368_E06 (antibody, V domains shown) VH: EVQLLESGGGLVQPGGSLRLSCAASGFTFSDYGMHWVRQAPGKGLEWVSGINYNGGYTGYADSVKGRFTISRDNSKNTLYLQMNSLRAEDTAVYYCARSANWHDTALDYWGQGTLVTVSS VL: DIQMTQSPSSLSASVGDRVTITCRASQSILSYLNWYQQKPGKAPKLVIYGATSRASGVPSRFSGSGSGTDFTLTISSLQPEDFATYYCQQSYDSPLTFGGGTKVEIK

>  <optical density, OD>
2.33

$$$$

Could you now look at the following binder, please?
// optical density lookup, key: 373_H05 (antibody, V domains shown) VH: EVQLLESGGGLVQPGGSLRLSCAASGFTFSDYSMNWVRQAPGKGLEWVANINYNGGYKGYADSVKGRFTISRDNSKNTLYLQMNSLRAEDTAVYYCARSANWHDTALDYWGQGTLVTVSS VL: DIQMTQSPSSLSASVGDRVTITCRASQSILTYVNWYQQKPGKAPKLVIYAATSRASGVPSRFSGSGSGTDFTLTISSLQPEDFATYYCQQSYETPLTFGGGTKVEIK
3.29
